The reader will find reported Activity values listed item by item below.
system: Hepatocyte; assay: Cytotoxicity in Wistar rat hepatocytes assessed as glutamic-pyruvic transaminase activity at 0.01 mg/ml after 30 hrs; assay type: cell-based
Provide the reading as a plain figure in IU/L.

CC1(C)[C@@H](O[C@H]2O[C@H](C(=O)O)[C@@H](O)[C@H](O)[C@H]2O[C@@H]2O[C@H](C(=O)O)[C@@H](O)[C@H](O)[C@H]2O)CC[C@]2(C)[C@H]3C(=O)C=C4[C@@H]5C[C@@](C)(C(=O)O)CC[C@]5(C)CC[C@@]4(C)[C@]3(C)CC[C@@H]12
24
O=C(/C=C/c1ccccc1)OC[C@H]1O[C@@H](O[C@@H]2OC=C[C@H]3[C@H](O)[C@@H]4O[C@]4(CO)[C@@H]23)[C@H](O)[C@@H](O)[C@@H]1O [PICROSIDE I]
24
CC1(C)[C@@H](O)CC[C@]2(C)[C@H]3C(=O)C=C4[C@@H]5C[C@@](C)(C(=O)O)CC[C@]5(C)CC[C@@]4(C)[C@]3(C)CC[C@@H]12
26
COc1cc(C2Oc3cc([C@H]4Oc5cc(O)cc(O)c5C(=O)[C@@H]4O)ccc3OC2CO)ccc1O (stereo not given in full)
29

Query block: Any idea what its Activity is? The compound is CSCC[C@H](N)C(=O)O
Result block: 24

---

The reader will find reported Activity values listed item by item below.
test system: Hepatocyte; assay: Cytotoxicity in Wistar rat hepatocytes assessed as glutamic-pyruvic transaminase activity at 1 mg/ml after 30 hrs; type: cell-based
Provide the reading as a plain figure in IU/L.

O=C(/C=C/c1ccc(O)c(O)c1)O[C@@H]1C[C@@](OC(=O)/C=C/c2ccc(O)c(O)c2)(C(=O)O)C[C@@H](O)[C@@H]1O
51
CSCC[C@H](N)C(=O)O
25
COc1cc([C@@H]2c3cc4c(cc3C[C@H]3COC(=O)[C@@H]32)OCO4)cc(OC)c1OC
137

Field: next compound
Query block: Lab note: need Activity with Hepatocyte for entry O=C(/C=C/c1ccccc1)OC[C@H]1O[C@@H](O[C@@H]2OC=C[C@H]3[C@H](O)[C@@H]4O[C@]4(CO)[C@@H]23)[C@H](O)[C@@H](O)[C@@H]1O [PICROSIDE I] , please look it up.
Result block: 131

---

The reader will find reported Activity values listed item by item below.
tested on: Hepatocyte; experiment: Cytotoxicity in Wistar rat hepatocytes assessed as glutamic-pyruvic transaminase activity at 1 mg/ml after 30 hrs; type: cell-based
Respond with the figure and its unit, in that order.

CC1(C)[C@@H](O)CC[C@]2(C)[C@H]3C(=O)C=C4[C@@H]5C[C@@](C)(C(=O)O)CC[C@]5(C)CC[C@@]4(C)[C@]3(C)CC[C@@H]12
42 IU/L
COc1cc(C(=O)O[C@H]2[C@@H]3C=CO[C@@H](O[C@@H]4O[C@H](CO)[C@@H](O)[C@H](O)[C@H]4O)[C@@H]3[C@@]3(CO)O[C@@H]23)ccc1O [PICROSIDE II]
40 IU/L
COc1cc(C2Oc3cc([C@H]4Oc5cc(O)cc(O)c5C(=O)[C@@H]4O)ccc3OC2CO)ccc1O (some centres undefined)
93 IU/L

Field: next compound
Query block: Lab note: need Activity with Hepatocyte for entry CC1(C)[C@@H](O[C@H]2O[C@H](C(=O)O)[C@@H](O)[C@H](O)[C@H]2O[C@@H]2O[C@H](C(=O)O)[C@@H](O)[C@H](O)[C@H]2O)CC[C@]2(C)[C@H]3C(=O)C=C4[C@@H]5C[C@@](C)(C(=O)O)CC[C@]5(C)CC[C@@]4(C)[C@]3(C)CC[C@@H]12 , please look it up.
Result block: 21 IU/L
